Measured IC50 accompanies every entry in the list below.
- study.system: Nonstructural protein 1 (Influenza A virus, UniProt Q194T2)
- Sequence (Q194T2 whole entry): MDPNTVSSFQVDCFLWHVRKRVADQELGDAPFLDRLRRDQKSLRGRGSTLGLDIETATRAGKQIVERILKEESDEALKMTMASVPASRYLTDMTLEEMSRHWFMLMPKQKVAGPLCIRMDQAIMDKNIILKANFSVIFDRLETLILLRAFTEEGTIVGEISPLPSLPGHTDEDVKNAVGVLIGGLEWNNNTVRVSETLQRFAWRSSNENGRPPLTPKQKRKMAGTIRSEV
- Assay type: functional, Influenza A virus (A/California/07/2009(H1N1))
The source made the active and inactive calls.

>  <compound>
COc1cc(C2CC(=O)Oc3c(C(CCN4CCCC(C)C4)c4ccc(N(C)C)cc4)c(OC)cc(OC)c32)cc(OC)c1OC (stereo unspecified)

>  <IC50>
28.5 µM (active)

$$$$
>  <compound>
NC(=S)N/N=C/c1ccccc1O

>  <IC50>
14.1 µM (active)

$$$$
>  <compound>
CC(C)(C)Nc1nc(-c2ccccn2)nc2ccccc12

>  <IC50>
12.2 µM (active)

$$$$
>  <compound>
Cc1cccc(-n2cnc(C(=O)NN=C(S)Nc3ccc(Cl)cc3)c2)n1

>  <IC50>
8.22 µM (active)

$$$$
>  <compound>
COc1cc(N(C)C)ccc1C=c1c2ccccc2n2c1cc(-c1ccccc1)[n+]2C

>  <IC50>
3.2 µM (active)

$$$$
>  <compound>
O=C(CSC1=NNC(c2ccccn2)S1)Nc1ccc(C(F)(F)F)cc1 (stereo unspecified)

>  <IC50>
7.8 µM (active)

$$$$

The measurements presented in this section are drawn from ChEMBL document CHEMBL1201862.
